test description: self-splicing fitness, log relative to wild type (ln ratio); higher = more splicing; Tetrahymena group I intron in knt gene, E. coli kanamycin selection, DiMSum; sequences stand for … in CUCUCU…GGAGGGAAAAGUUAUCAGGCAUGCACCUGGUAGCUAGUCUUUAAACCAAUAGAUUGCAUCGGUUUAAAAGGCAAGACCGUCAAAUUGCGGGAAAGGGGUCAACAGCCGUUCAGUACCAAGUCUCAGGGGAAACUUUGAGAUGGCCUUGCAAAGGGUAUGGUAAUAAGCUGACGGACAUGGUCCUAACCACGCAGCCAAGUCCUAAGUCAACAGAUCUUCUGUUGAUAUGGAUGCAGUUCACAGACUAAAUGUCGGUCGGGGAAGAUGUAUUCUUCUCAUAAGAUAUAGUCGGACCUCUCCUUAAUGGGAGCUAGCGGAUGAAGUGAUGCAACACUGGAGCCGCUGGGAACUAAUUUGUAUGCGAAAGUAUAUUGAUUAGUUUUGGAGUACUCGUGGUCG;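 further: selection with 25 µg/mL kanamycin versus none on LB agar overnight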
condition notes: 37 °C
quantity measured: self-splicing fitness (ln)
Give the figure only, with no unit attached.

Some solved cases for reference:
AGGUAGCAAUAUUACGCCGU: -0.852
GGGUAGCAAUAUUACGGGAU: -2.04
CGUCAGCAAUAUUACGUGGA: -0.946
CAUGAGCAAUAUUACGUGUA: -2.1
UUUAAGCAAUAUUACGCUUA: -3.03
CGGAAGCAAUAUUACGACGU: -0.27
AAACAGCAAUAUUACGCUAU: -2.23
GCCAAGCAAUAUUACGCUCA: 0.0485

For reference, reported self-splicing fitness (ln) for GGCCAGCAAUAUUACGUCAA stands at -2.61

For reference, reported self-splicing fitness (ln) for UCUCAGCAAUAUUACGAGAG stands at -1.46
